Data provenance: patent US6987114B1

Test system: HIV
Experiment: microbe, parasite or virus in culture
Format: cell-based
Conditions: Human immunodeficiency virus 1, MT4; HIV-infected MT-4 cells, MTT method, 4 or 5 days at 37° C.; read-out: ED50 (the source's name)
Reported EC50 values for the following molecules.
metric_name: EC50 (µg/mL)

> print(dat)
                           molecular.string  measured.target  cmp  value.measured
1  CCc1c(Sc2cc(C)cc(C)c2)n(Cc2ccccn2)c(=O)[nH]c1=O              HIV    =           0.015
2  Cc1cc(C)cc(Oc2c(C(C)C)c(=O)[nH]c(=O)n2Cc2ccccc2)c1              HIV    =           0.015
3  Cc1cc(C)cc(C(=O)c2c(C(C)C)c(=O)[nH]c(=O)n2CC2CCC2)c1              HIV    =          0.0027
4  Cc1cc(C)cc(Oc2c(C(C)C)c(=O)[nH]c(=O)n2Cn2nnc3ccccc32)c1              HIV    =           0.044
5  Cc1cc(C)cc(Oc2c(C(C)C)c(=O)[nH]c(=O)n2Cc2cc(C(F)(F)F)cc(C(F)(F)F)c2)c1              HIV    >             100
6  Cc1cc(C)cc(C(=O)c2c(C(C)C)c(=O)[nH]c(=O)n2Cc2cc(F)cc(F)c2)c1              HIV    =          0.0033
7  CCc1c(Oc2cc(C)cc(C)c2)n(Cc2cc(F)ccc2F)c(=O)[nH]c1=O              HIV    =           0.034
8  Cc1cc(C)cc(Oc2c(C(C)C)c(=O)[nH]c(=O)n2Cc2cccc(Br)n2)c1              HIV    =           0.079
